Test: binders of probe aFST on microarray, primary screen, stem cell growth factor project, biochemical, small-molecule microarray, fluorescence 635/667 (AID 1086);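 also: score merges 667 nm fluorescence with signal-to-noise of each printed compound spot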
Conditions: higher = more signal
measure: composite z-score

Consider the reported composite z-score for these molecules:
molecule	composite z-score
NCCCCCCNC(=O)[C@@H]1C[C@@H]2C(=O)NCC(=O)N2[C@@H]1c1cccc(OCCO)c1	0.543
O=C1O[C@H](c2ccccc2)[C@H](c2ccccc2)N2[C@H]1[C@@H](C(=O)O)[C@]1(C(=O)Nc3ccc(C#CC4(O)CCCCCC4)cc31)[C@H]2c1ccccc1OCCO	0.39
COc1ccc(C(=O)Nc2ccc(CN3C(=O)[C@]4(O[C@H](CC(=O)N(CCO)Cc5ccccc5)[C@@H]([Si](C)(C)c5ccc(OC)cc5)[C@@H]4C)c4ccccc43)cc2)cc1	0.276
COc1cccc(C)c1NC(=O)O[C@H]1[C@H](OC(=O)Nc2ccccc2-c2ccccc2)[C@@H](OC(=O)Nc2ccccc2-c2ccccc2)[C@@H](OC)O[C@@H]1CO	1.64
O=C1OCCC/C=C\[C@H]2OC34C=CCN(Cc5ccccc5)C(=O)[C@H]3N(CCO)C(=O)[C@@H]4C12 (stereo not given in full)	-0.342
CC1C2C(CCCO)=CC(C3C(=O)N(C(N)=O)C(=O)C23)N1Cc1cccc(OC(F)(F)F)c1 (stereo not given)	0.269
C=C(/C=C\CNS(=O)(=O)c1ccc(C)cc1)[C@H](O)[C@H]1CCCN1S(=O)(=O)c1ccccc1[N+](=O)[O-]	-0.105
O=C1C2C=CC(C(O)C3CCCCC3)N(Nc3ccccc3F)C2C(=O)N1c1ccccc1 (stereo not given)	1.55

Item: CCCN1C(=O)[C@@]2(c3ccc([N+](=O)[O-])cc3)CC(=O)N(C3CCCCC3)[C@@H]2c2ccc(CO)cc21 | composite z-score: -0.479

So for COc1cc(Cc2cc3c(c(-c4ccccc4)n2)[Si](C(C)C)(C(C)C)OC3)cc(OC)c1OC , the logged composite z-score turned out to be 0.0647

Entry COc1ccc(C(O)C2C=CC3C(=O)N(C)C(=O)C3N2Nc2ccccc2)cc1 (stereo not given) ; composite z-score = 0.791

Data provenance: PubChem BioAssay
